Parameter inhibition: see the listing below.
# measurement.protocol: inhibitors of the yeast RAM network, pilot screen, dse1pr::URA3 reporter, 5-FOA selection (AID 869);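 also: 0% = DMSO wells with no growth and 100% = 10 µM 1-NA-PP1 with full growth; RAM network block rescues cells from 5-FOA so hits raise OD615 growth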
# measurement.setup: S. cerevisiae dse1pr::URA3 5-FOA growth, OD615, 2 d; at 10 µM; stronger effect = higher value; strain carries analog-sensitive mutant Cbk1 kinase
measure: inhibition (%)

>>> df
                                    compound     measure  reported
 0     Cc1ccc(C)c(C(=O)COC(=O)c2ccc(Br)o2)c1  inhibition      0.38
 1       COc1ccc(Cl)cc1NC(=O)c1cnc2sccn2c1=O  inhibition      4.45
 2     COc1cccc2cc3c(=O)n(-c4ccccc4)nc-3oc12  inhibition      2.73
 3  CCc1cc2c(NCC3CCCO3)ncnc2s1 (stereo unspecified)  inhibition      0.34
 4   COCc1cc(C)nc2sc3c(=O)n(Cc4ccco4)nnc3c12  inhibition       4.2
 5    Cc1onc(-c2ccccc2Cl)c1C(=O)N(C)C1CCCCC1  inhibition     -0.15
 6          COc1ccc(C2(CNC(C)=O)CCOCC2)cc1OC  inhibition      2.54
 7                    C(=N\n1cnnc1)/C1CCCCC1  inhibition      0.19
 8  CCCc1ccc(OCC(O)CN2CCN(c3ccccc3)CC2)cc1 (stereo unspecified)  inhibition     0.325
 9         O=C(CCC1CCCC1)c1c(O)c2ccccc2oc1=O  inhibition      0.63
10      O=C(CN1C(=O)COc2ccccc21)Nc1ccc(F)cc1  inhibition      1.26
11  CC1CCN(CCCNC(=O)CN2CCN(Cc3ccc(Cl)cc3)C2=O)CC1  inhibition      2.27
12  Cc1c(C(=O)NCc2ccc3c(c2)OCO3)oc2ccc(S(=O)(=O)N3CCC(C)CC3)cc12  inhibition      2.39
13  CCCC(=O)C1C(=O)CC(C)(C)C(c2cc(C)no2)C1=O (stereo unspecified)  inhibition      -0.1
14         CC(=O)Nc1ccc2nc(-c3cccs3)[nH]c2c1  inhibition      2.38
15   NC(=O)c1ccc(N2CCCCC2)c(N2C(=O)CCC2=O)c1  inhibition      2.69
